# TEST_SYSTEM: B-RAF G466V (Homo sapiens, UniProt P15056, G466V)
# Construct: expressed in transfected cells; host or cells: T-Rex 293 cells (Invitrogen #R71007)
# Sequence (P15056 whole entry G466V): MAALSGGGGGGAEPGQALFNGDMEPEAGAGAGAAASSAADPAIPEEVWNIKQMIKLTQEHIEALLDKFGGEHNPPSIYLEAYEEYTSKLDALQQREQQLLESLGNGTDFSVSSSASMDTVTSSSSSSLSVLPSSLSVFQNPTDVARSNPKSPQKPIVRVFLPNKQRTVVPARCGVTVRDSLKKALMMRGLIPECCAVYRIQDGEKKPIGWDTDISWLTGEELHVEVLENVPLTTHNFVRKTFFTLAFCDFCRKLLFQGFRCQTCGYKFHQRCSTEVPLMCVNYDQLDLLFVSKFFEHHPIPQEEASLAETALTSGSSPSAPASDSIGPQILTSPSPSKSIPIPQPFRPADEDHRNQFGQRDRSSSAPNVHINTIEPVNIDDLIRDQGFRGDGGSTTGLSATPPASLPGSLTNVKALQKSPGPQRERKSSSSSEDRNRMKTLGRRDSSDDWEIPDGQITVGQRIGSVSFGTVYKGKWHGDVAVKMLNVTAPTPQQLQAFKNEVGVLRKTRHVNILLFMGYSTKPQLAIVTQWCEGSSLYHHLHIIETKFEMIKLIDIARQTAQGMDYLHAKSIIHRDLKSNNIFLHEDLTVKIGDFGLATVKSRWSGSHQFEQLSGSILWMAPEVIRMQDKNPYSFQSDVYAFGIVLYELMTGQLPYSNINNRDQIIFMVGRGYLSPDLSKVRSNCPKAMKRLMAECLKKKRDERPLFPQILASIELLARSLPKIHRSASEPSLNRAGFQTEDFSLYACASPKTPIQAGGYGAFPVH
# ASSAY_EXPLANATION: Target protein degradation, assay D: T-Rex 293 cells, HA-BRAF_G466V, 384 well format
# Type: cell-based
# PROTOCOL_CONDITIONS: Assay D, T-Rex 293 HA-BRAF_G466V cells, 24 hours, Examples 83-269
Recorded measurements of DC50, one per entry

[
  {
    "MOLECULE": "N#Cc1c(NS(=O)(=O)N2CC[C@@H](F)C2)ccc(F)c1Oc1ccc2ncn(-c3ccc(N4CC(CN5CC(c6ccc7c(c6)CN([C@H]6CCC(=O)NC6=O)C7=O)C5)C4)cc3)c(=O)c2c1",
    "DC50": "1 to 10 nM"
  },
  {
    "MOLECULE": "CC(C)(C1CCN(c2ncc(-n3cnc4ccc(Oc5c(F)ccc(NS(=O)(=O)N6CC[C@@H](F)C6)c5C#N)cc4c3=O)cn2)CC1)N1CCN(c2ccc3c(c2)C(=O)N(C2CCC(=O)NC2=O)C3=O)CC1 (stereo partly drawn)",
    "DC50": "1 to 10 nM"
  },
  {
    "MOLECULE": "N#Cc1c(NS(=O)(=O)N2CC[C@@H](F)C2)ccc(F)c1Oc1ccc2ncn(-c3cnc(N4CCN(CC5CCN(c6ccc7c(c6)CN(C6CCC(=O)NC6=O)C7=O)CC5)CC4)cn3)c(=O)c2c1 (stereo partly drawn)",
    "DC50": "1 to 10 nM"
  }
]

We now examine a further molecule.
Any idea what DC50 was measured for CN(c1ccc2c(c1)CN([C@H]1CCC(=O)NC1=O)C2=O)[C@H]1CC[C@H](N2CCN(c3ccc(-n4cnc5ccc(Oc6c(F)ccc(NS(=O)(=O)N7CC[C@@H](F)C7)c6C#N)cc5c4=O)cc3)CC2)CC1 ?
1 to 10 nM
